Taken from the Kinase Knowledgebase extract (Sharma et al. 2016).

- Target or system: UniProtKB P48736
- Sequence (P48736 whole entry, looked up): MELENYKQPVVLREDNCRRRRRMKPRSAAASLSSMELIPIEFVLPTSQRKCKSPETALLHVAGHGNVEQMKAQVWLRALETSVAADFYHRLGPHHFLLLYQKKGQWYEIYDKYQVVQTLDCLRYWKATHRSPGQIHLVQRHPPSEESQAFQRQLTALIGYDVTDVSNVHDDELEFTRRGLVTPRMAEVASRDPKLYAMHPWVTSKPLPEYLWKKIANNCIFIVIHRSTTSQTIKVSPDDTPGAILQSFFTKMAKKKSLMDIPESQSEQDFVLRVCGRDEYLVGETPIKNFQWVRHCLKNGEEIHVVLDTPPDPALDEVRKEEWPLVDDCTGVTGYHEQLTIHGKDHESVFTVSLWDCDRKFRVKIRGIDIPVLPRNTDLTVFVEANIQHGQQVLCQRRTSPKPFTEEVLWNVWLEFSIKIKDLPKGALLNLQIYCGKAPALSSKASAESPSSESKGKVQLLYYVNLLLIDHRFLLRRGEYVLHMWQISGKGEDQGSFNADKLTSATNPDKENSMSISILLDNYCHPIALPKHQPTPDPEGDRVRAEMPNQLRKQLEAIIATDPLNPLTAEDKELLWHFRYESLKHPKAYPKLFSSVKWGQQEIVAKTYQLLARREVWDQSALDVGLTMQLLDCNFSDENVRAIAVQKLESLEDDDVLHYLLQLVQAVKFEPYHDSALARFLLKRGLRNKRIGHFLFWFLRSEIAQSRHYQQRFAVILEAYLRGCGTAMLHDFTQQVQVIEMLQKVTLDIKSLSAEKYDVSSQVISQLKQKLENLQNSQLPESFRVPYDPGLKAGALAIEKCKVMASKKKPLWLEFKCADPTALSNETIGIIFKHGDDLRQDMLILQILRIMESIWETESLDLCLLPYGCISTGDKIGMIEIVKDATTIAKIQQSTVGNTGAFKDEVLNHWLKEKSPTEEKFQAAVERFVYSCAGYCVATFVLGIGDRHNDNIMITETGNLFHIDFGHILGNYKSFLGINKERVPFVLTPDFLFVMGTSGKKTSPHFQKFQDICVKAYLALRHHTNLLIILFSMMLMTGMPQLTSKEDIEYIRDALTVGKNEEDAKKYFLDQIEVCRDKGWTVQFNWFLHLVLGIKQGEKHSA
Value type: pIC50
Numbers only, as −log10 of the molar value.

Smiles input | Value type | Readout value
C=CCNC(=O)N1CCc2c(nc(-c3ccc(NC(=O)NC)cc3)nc2N2CC3CCC(C2)O3)C1 | pIC50 | 6.43
CS(=O)(=O)N1CCc2c(nc(-c3ccc(NC(=O)Nc4cccnc4)cc3)nc2N2CCOCC2)C1 | pIC50 | 7.36
CNC(=O)Nc1ccc(-c2nc3c(c(N4CC5CCC(C4)O5)n2)CCN(C(=O)C(C)(C)C)C3)cc1 | pIC50 | 6.52
CNC(=O)Nc1ccc(-c2nc3c(c(N4CC5CCC(C4)O5)n2)CCN(C(=O)NC2CCCCC2)C3)cc1 | pIC50 | 6.22
O=C(Nc1ccc(-c2nc3c(c(N4CC5CCC(C4)O5)n2)CNC3)cc1)Nc1cccnc1 | pIC50 | 5.73

Parameter requested: pIC50. Apply to each item below.
1. CN1CCc2c(nc(-c3ccc(NC(=O)Nc4cccnc4)cc3)nc2N2CC3CCC(C2)O3)C1
2. CNC(=O)Nc1ccc(-c2nc3c(c(N4CC5CCC(C4)O5)n2)CCN(C(=O)CCC2CCCC2)C3)cc1
3. O=C(Nc1ccc(-c2nc3c(c(N4CCOCC4)n2)CCNC3)cc1)Nc1cccnc1
4. CCCCCCC(=O)N1CCc2c(nc(-c3ccc(NC(=O)NC)cc3)nc2N2CC3CCC(C2)O3)C1
5. CNC(=O)Nc1ccc(-c2nc3c(c(N4CC5CCC(C4)O5)n2)CCN(C(=O)OCC(C)C)C3)cc1
6. CCCCNC(=O)N1CCc2c(nc(-c3ccc(NC(=O)NC)cc3)nc2N2CC3CCC(C2)O3)C1
7. O=C(Nc1ccc(-c2nc3c(c(N4CCOCC4)n2)CNC3)cc1)Nc1cccnc1

1: 5.02; 2: 5.98; 3: 6.15; 4: 6.02; 5: 6.46; 6: 6.43; 7: 7.17

The compound CNC(=O)Nc1ccc(-c2nc3c(c(N4CC5CCC(C4)O5)n2)CNC3)cc1 showed pIC50 equal to 5.47
